Values were extracted from the supplement of paper PMC9170038.

Test system: MS2 coat protein
experiment.notes: apparent KD of MS2 coat protein; designed switch direction (-1 OFF switch, 1 ON switch): -1; higher = weaker reporter binding
measurement.setup: input ligand: none

- sequence.input: "GGCACACAUGAGGAUCACCCAUGUGAGGAUAUGUGGCGAUCGUCGAAAGACGAUAGCCAUAGAAGGCACAUGCC [Eli x1 4.08] (Eterna round: R97, puzzle: Exclusion 1)"
  result.unit: "nM"
  apparent KD of MS2 coat protein: 18.1
- sequence.input: "CUUGUUUAUGUAGGAUAUACAUGAGGAUCACCCAUAGAAGGACAUGAGGAUCACCCAUGUAUUGCGGUCUGCGUUCAGAUCGCA [salish99_ExNG1_r04_101] (Eterna round: R96, puzzle: Exclusion NG 1)"
  result.unit: "nM"
  apparent KD of MS2 coat protein: 335
- sequence.input: "UUAAAUCAUGUAGGAUAUGCAUAGCAAAGCUAUGCAGAAGGACAUGAGGAUCACCCAUGUGCUUGCGUCCGCGUACGGAUGCUA [Mat - Exclusion NG 1 - Mod of JL - D68] (Eterna round: R96, puzzle: Exclusion NG 1)"
  result.unit: "nM"
  apparent KD of MS2 coat protein: 138
- sequence.input: "UGAGCUUCAGGAUAUACGUGACGACCGUGAGGUCGAAGGUUACAUGAGGAUCACCCAUGUAGAAGGGAAGUUCU [Mat - Exclusion 2 - JL Mod - D27] (Eterna round: R97, puzzle: Exclusion 2)"
  result.unit: "nM"
  apparent KD of MS2 coat protein: 27.5

---

apparent KD of K4 kissing-loop reporter overview
Test system: K4 kissing-loop RNA reporter;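 also: bound reporter read as fluorescence of individual clusters on recovered sequencing chips by microscopy, with normalized cluster intensities fitted with a binding model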
experiment.notes: apparent KD of K4 kissing-loop reporter; higher = weaker reporter binding
measurement.setup: Eterna round: R107; input ligand: none
measurement.kind: apparent KD of K4 kissing-loop reporter (nM)

- sequence.input: "GGAGGAGAAUAUGAUACCAGCAGAGAGAGAGAGGAAGUAUAGUGAUGUUAUAUGUGAGAAUGCCCUUGGCAGCAUAACAAGAAGG [whbob_SS_Theo_B_sa88]"
  measurement.kind: "apparent KD of K4 kissing-loop reporter"
  experimental.value: 194
- sequence.input: "GGUAGCAUGGCGGCCGCCACUGUCUACUGAGGCGGAGUGAUGUUCCGGUUUAAAUAACAAGUUCACAGGACCGGGCCAUGCUACC"
  measurement.kind: "apparent KD of K4 kissing-loop reporter"
  experimental.value: 462
- sequence.input: "AUUUGUUUAUGUGAUACCAGACUUUGCAGUGAUGUUGCAUUUAUUUUAGAAGAAUAGUUUGUCCCUUGGCAGCACUAUGUAUUUA [JR_SSTheophyB_Sub006]"
  measurement.kind: "apparent KD of K4 kissing-loop reporter"
  experimental.value: 49.3
- sequence.input: "GCGGGCCAGACGGCCGCCACUCCGGGCAGUGAUGUUGCGAAUCUUCUACUAGAGUGAUGUUCUACGAGGACCGGGUCGGAACGCG [Exclusion Tryptophan B Gf 14]"
  measurement.kind: "apparent KD of K4 kissing-loop reporter"
  experimental.value: 569
- sequence.input: "AGGGCGGAGUGAUGUUCCGGCUCCCGAUUUAAGGAUAUUGCGUAAACAAGAAGGUAAAGGCGCAGCAAUAUUAUUUCGUAAGGCG [theeternabot_exclusion_KL_FMN_A_23]"
  measurement.kind: "apparent KD of K4 kissing-loop reporter"
  experimental.value: 93.7
- sequence.input: "UUUUGCUAGCGAAACGCUAGCUUAACAGAUACCAGUCGCGAAAGCGACCCUUGGCAGCUGCUGAGUGAUGUUCAGGUGAGAGUUA"
  measurement.kind: "apparent KD of K4 kissing-loop reporter"
  experimental.value: 344
- sequence.input: "UGGACCUGACUCGAUAAGAGUCAAUGAGAUACCAGUGACGAAAGUCACCCUUGGCAGCUCCUGCCAGUGAUGUUGGUAAGGUCCU [#SwitchBubble 4 #StaticStem]"
  measurement.kind: "apparent KD of K4 kissing-loop reporter"
  experimental.value: 437
- sequence.input: "UGCAUGCUUAGAGUGAUGUUCUAAGAUGAUACCAGUGCUUUUUUGCACCCUUGGCAGCGUCUGAUUGCAUGCACGUCGAAAGACG"
  measurement.kind: "apparent KD of K4 kissing-loop reporter"
  experimental.value: 279
- sequence.input: "CCAUCGCUAUUCGAUACCAGUCAUUUUUUAUUUUAUUUUUUUUUUGGAGUGAUGUUCCAAGACCCUUGGCAGCGAAUAGUGAUGG [whbob_SS_Theo_B_th78]"
  measurement.kind: "apparent KD of K4 kissing-loop reporter"
  experimental.value: 113
- sequence.input: "UUAUUAAUCACAGAUACCAGUCCAGAAUGAAUACUAUAGUGAUGUUAUAAUAAAGGGAAGGACCCUUGGCAGCUGUAAUAUAUUU [AstrosSsTheB#2]"
  measurement.kind: "apparent KD of K4 kissing-loop reporter"
  experimental.value: 499
- sequence.input: "UAUUGAUUGUCAGGAUAUCGUAAACGAGUGAUGUUCGUAAAUCGACGAUAGUCGAUAUGAUCUGAACGAGAAGGGACAUUAUUUA [JR_SSFMNB_Sub010]"
  measurement.kind: "apparent KD of K4 kissing-loop reporter"
  experimental.value: 388
- sequence.input: "AAGGCACGGCUUCGGCCGUGCCAAAUAGAUACCAGCAUAAUAAUAUGCCCUUGGCAGCUAAAUAUAAAUUCAGUGAUGUUGGAUA [SS Theo A Tesla 2.2]"
  measurement.kind: "apparent KD of K4 kissing-loop reporter"
  experimental.value: 604
- sequence.input: "AAACGCUUGAAUAACAAGCGAAAUAAAAUUCGAGGACCGGUACGGCCGCCACUCGGGCUAACUGCGAGUGAUGUUCGAAAAUAAA [Mat - Mod of OpenEnded 3 - D17]"
  measurement.kind: "apparent KD of K4 kissing-loop reporter"
  experimental.value: 257
- sequence.input: "GAUUAAUAAGAGGAUACCAGUACUAAUAAAGUACAUUAAUAGUAGAGUGAUGUUCUAUAGUACCCUUGGCAGCUUAGAGUAAGUU [#09 K4 Theophylline B Exclusion]"
  measurement.kind: "apparent KD of K4 kissing-loop reporter"
  experimental.value: 167
- sequence.input: "AGUCCACUCUAAAGAGUGGACCUAAGGGAUACCAGUGAUGUUGGUCACCCUUGGCAGCCCACUGUCAUCGAUAAAGAUGGCAGCA"
  measurement.kind: "apparent KD of K4 kissing-loop reporter"
  experimental.value: 113
- sequence.input: "CGCGCGCGUUUGAGAGGGUGCGCGCGAAGUGAGGAUAUUUAGGGAGAAAGAAGGCACUAUAAAAUAUAGUGAUGUUAUAUAAGGG [SSFMNA.G]"
  measurement.kind: "apparent KD of K4 kissing-loop reporter"
  experimental.value: 382
- sequence.input: "UCAGUGAUGUUGAACAAAUAAUGGUUCCUAAAGGAUAUCCACAGAUGGAGAAGGUUAGUAGCGGCUCGCACAUCGUAGGACAAAU [theeternabot_exclusion_KL_FMN_A_1]"
  measurement.kind: "apparent KD of K4 kissing-loop reporter"
  experimental.value: 734
- sequence.input: "GAAUUAAUGUCUUUAAUAUAAUAAUCAGAUACCAGUGAUUUGUGACACCCUUGGCAGCUGUAUAGAGUGAUGUUCUUAUACAUAA [#12 K4 Theophylline A Exclusion]"
  measurement.kind: "apparent KD of K4 kissing-loop reporter"
  experimental.value: 409
- sequence.input: "UGAUAGGACAGAAGGAGCGGAAGUGAUGUUUCCAAAUGGAAUAAGGUGUCAAAGACACCCUUCCAGGUAGGUCGCUGUCCUAUCU [ArgBX 15 #Palindromic #SwitchBubble #StaticStem]"
  measurement.kind: "apparent KD of K4 kissing-loop reporter"
  experimental.value: 140
- sequence.input: "UCCUAGGCUCGAAAGAGCCUAGGAUGGACUCAGGAUAUCCGGAAACGGAGAAGGGAGUCACUAGUGAUGUUAGGGACUCCCUAAC"
  measurement.kind: "apparent KD of K4 kissing-loop reporter"
  experimental.value: 110
- sequence.input: "GAUAUAGUGAUGUUAUAUACUGAUAGACAACGAGGACCGGUACGGCCGCCACUCGAGAGGGUGAAAAUGGUGAUAAAAUAAUGAU [#03 K4 Tryptophan A Exclusion]"
  measurement.kind: "apparent KD of K4 kissing-loop reporter"
  experimental.value: 381
- sequence.input: "AGUGAACGAGCGGCCGCCACUAAAUGAGUGAUGUUCGUGAGUAGUGCUGUUGUCAUGAUUGUUUUUAGGACCGGGUUCGAUGUUG [popplmullin]"
  measurement.kind: "apparent KD of K4 kissing-loop reporter"
  experimental.value: 1270
- sequence.input: "UAACUGCAGUGAUGUUGCAGAUGUCCUGACUAGGAUAUCAGGAAACUGAGAAGGAGUCCCUUCUACUGCAACAAGAAGGAGGACA [[K1]-[K2]-[F1]'-[F1]-[F2]-[F2]'-[K]'-[F]''_Design2]"
  measurement.kind: "apparent KD of K4 kissing-loop reporter"
  experimental.value: 436
